The reported numbers originate from paper PMC9308754.

ASSAY_TARGET: drHDAC10 (Danio rerio)
Sequence (F1QCV2 2-675 limits assumed): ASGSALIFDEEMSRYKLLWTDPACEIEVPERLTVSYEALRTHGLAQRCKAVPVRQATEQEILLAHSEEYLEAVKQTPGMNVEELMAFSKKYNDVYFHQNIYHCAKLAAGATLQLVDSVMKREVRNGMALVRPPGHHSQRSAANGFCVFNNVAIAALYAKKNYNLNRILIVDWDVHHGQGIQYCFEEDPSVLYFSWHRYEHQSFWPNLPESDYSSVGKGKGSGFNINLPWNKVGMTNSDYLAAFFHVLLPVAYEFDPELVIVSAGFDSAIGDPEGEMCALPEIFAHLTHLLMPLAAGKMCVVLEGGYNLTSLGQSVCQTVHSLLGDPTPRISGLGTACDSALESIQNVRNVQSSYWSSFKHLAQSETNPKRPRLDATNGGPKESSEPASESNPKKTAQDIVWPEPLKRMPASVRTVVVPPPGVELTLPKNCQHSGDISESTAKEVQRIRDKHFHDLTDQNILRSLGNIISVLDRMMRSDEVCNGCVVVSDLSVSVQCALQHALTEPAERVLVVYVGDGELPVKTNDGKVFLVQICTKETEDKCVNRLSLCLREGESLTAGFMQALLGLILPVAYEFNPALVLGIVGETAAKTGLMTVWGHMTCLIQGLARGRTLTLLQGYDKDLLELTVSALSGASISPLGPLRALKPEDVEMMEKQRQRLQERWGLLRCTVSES
EXPERIMENT_SUMMARY: NDA assay drHDAC10
CONDITION_SUMMARY: read-out: NDA assay drHDAC10 % inhibition
VALUE_KIND: inhibition at 1 µM

1) Cc1[nH]c2ccccc2c1CCNCc1ccc(/C=C/C(=O)NO)cc1 [panobinostat] ... > 95%
2) Cn1cc(CNCC2CCN(c3ncc(C(=O)NO)cn3)CC2)c2ccccc21 [quisinostat] ... 91%
3) CN(C)Cc1c(C(=O)NCCOc2ccc(C(=O)NO)cc2)oc2ccccc12 [abexinostat] ... > 95%

// query Recorded inhibition at 1 µM for Nc1ccccc1NC(=O)c1ccc(CNc2nccc(-c3cccnc3)n2)cc1 [mocetinostat] , please?
// result < 10%

// query What value of measured inhibition at 1 µM is listed for CN1CCc2c(c3ccccc3n2Cc2ccc(C(=O)NO)cc2)C1 [tubastatin A] ?
// result > 95%
